B1: H2-Kb / Ed46 (parent complex)
chain 1: AQSVTQPDARVTVSEGASLQLRCKYSYFGTPYLFWYVQYPRQGLQLLLKYYPGDPVVQGVNGFEAEFSKSNSSFHLRKASVHWSDWAVYFCAVGRTGGYKVVFGSGTRLLVSP
chain 2: DSGVVQSPRHIIKEKGGRSVLTCIPISGHSNVVWYQQTLGKELKFLIQHYEKVERDKGFLPSRFSVQQFDDYHSEMNMSALELEDSAMYFCASSPRHSDYTFGSGTRLLVI
chain 3: not shown
chain 4: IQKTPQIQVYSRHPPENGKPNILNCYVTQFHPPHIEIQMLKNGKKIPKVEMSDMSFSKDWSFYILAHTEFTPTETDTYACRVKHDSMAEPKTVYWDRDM
chain 5: SIINFEKL

Variants of: B1
procedure_summary: % of reporter cells activated (NFAT-GFP), raw; note: test concentration or dose not given here
Here, each record is paired with measured ratio to parent data.
Kindly provide the number alone.

mutation_id: chain 5 N4D
ratio to parent: 0.009

mutation_id: chain 5 I3Q
ratio to parent: 0.383

Asked: So what's the measured ratio to parent for this one? chain 5 S1C
Given back: 0.0634

Asked: So what's the measured ratio to parent for this one? chain 5 I3V
Given back: 0.724

Asked: So what's the measured ratio to parent for this one? chain 5 K7G
Given back: 0.341
